system: ActRIIA and ActRIIB (on TGFB/SMAD SBE Reporter HEK293 cells) (human)
Sequence (chain, as listed by the source, chain 1 of 2): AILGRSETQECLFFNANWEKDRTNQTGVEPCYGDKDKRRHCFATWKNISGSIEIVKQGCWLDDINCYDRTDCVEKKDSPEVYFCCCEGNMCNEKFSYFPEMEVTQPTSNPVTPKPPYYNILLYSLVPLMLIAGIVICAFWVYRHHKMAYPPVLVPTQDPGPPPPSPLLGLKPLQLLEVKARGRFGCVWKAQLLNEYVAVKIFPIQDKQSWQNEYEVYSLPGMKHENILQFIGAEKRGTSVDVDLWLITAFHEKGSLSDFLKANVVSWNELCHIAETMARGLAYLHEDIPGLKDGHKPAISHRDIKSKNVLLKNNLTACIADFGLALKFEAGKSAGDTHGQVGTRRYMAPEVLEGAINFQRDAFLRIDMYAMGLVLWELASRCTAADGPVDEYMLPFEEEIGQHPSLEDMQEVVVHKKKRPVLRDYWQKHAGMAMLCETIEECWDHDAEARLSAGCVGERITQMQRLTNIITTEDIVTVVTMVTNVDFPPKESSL
Sequence (chain, as listed by the source, chain 2 of 2): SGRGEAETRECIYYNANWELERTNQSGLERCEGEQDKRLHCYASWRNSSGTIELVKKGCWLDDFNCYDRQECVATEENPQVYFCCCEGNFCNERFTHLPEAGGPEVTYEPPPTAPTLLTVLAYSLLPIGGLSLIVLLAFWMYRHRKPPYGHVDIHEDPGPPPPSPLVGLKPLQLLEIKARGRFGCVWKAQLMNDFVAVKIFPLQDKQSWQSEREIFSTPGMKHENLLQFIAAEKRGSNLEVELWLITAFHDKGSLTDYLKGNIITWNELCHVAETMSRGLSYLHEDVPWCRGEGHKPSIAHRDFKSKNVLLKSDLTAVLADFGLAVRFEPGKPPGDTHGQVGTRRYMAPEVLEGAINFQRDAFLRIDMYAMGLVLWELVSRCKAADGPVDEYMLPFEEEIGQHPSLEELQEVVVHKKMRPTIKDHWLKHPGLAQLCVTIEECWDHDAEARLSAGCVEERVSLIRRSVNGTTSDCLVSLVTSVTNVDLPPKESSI
assay-remarks: cell-based or functional assay
assay-metric: IC50 fold difference (Fab:IgG), Myostatin SMAD RGA (fold)
Write it as a number; the unit fold goes unstated.

binder	experimental-result
Biiramooscht Fab (Fab, V domains shown, Fab) VH: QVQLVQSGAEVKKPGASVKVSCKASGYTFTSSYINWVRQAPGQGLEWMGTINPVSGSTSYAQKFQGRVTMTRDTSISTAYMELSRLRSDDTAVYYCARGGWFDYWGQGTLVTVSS VL: QSALTQPASVSGSPGQSITISCTGTSSDVGSYNYVNWYQQHPGKAPKLMIYGVSKRESGVSNRFSGSKSGNTASLTISGLQAEDEADYYCGTFAGGAYYGVFGGGTKLTVL	7.9
Rippla Fab (Fab, V domains shown, Fab) VH: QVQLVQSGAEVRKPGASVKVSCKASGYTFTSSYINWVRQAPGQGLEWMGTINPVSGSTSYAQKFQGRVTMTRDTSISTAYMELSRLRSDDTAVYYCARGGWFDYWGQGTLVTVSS VL: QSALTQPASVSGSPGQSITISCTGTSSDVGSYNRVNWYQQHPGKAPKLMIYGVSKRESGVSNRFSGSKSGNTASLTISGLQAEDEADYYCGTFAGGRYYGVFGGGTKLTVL	5.1
Hefaknöpfla Fab (Fab, V domains shown, Fab) VH: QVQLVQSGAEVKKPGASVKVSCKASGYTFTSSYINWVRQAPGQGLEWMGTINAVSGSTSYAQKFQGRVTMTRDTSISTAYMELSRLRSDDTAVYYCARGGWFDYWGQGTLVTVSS VL: QSALTQPASVSGSPGQSITISCTGTSSDVGSKNYVNWYQQHPGKAPKLMIYGVSKRESGVSNRFSGSKSGNTASLTISGLQAEDEADYYCGTFAGGKYYGVFGGGTKLTVL	14.2
Duuranad Fab (Fab, V domains shown, Fab) VH: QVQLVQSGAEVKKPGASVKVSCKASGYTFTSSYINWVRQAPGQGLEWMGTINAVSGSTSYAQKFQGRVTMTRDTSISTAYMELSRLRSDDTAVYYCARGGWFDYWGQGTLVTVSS VL: QSALTQPASVSGSPGQSITISCTGTSSDVGSFNYVNWYQQHPGKAPKLMIRGVSKRESGVSNRFSGSKSGNTASLTISGLQAEDEADYYCGTFAGGAYYGVFGGGTKLTVL	20.2

Request the reported IC50 fold difference (Fab:IgG), Myostatin SMAD RGA associated with Wurschdsalat Fab (Fab, V domains shown, Fab) VH: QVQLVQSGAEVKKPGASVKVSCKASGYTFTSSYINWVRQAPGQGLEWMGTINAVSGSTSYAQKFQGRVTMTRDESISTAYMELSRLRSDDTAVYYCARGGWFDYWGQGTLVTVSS VL: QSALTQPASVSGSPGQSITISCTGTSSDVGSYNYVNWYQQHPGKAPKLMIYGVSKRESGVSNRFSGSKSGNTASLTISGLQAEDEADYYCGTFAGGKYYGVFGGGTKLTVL
40.7

For Fasnetsküchla Fab (Fab, V domains shown, Fab) VH: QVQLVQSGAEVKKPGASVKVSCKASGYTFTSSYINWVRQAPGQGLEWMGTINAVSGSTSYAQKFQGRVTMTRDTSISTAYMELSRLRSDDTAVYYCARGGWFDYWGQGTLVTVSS VL: QSALTQPASVSGSPGQSITISCTGTSSDVGSANYVNWYQQHPGKAPKPMIYGVSRRPSGVSNRFSGSKSGNTASLTISGLQAEDEADYYCGTFAGGKYYGVFGGGTKLTVL then?
4.8

For Riaba Fab (Fab, V domains shown, Fab) VH: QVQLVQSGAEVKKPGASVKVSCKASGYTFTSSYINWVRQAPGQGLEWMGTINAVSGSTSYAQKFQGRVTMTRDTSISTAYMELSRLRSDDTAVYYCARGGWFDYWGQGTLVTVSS VL: QSALTQPASVSGSPGQSITISCTGTSSDVGSYNYVNWYQQHPGKAPKLMIYGVSKRDSGVSNRFSGSKSGNTASLTISGLQAEDEADYYCGTFAGGKYYGVFGGGTKLTVL then?
199
